assay.notes: Plasma PK of 450 mg capsules in fasted and fed patients, dose expansion
Type: in vivo, human
protocol.conditions: human, plasma, oral, 450 mg, 450 mg QD capsules, Dose Expansion-Fasted; Geometric Mean (GeoCV %); read-out: AUC0-24
quantity.name: AUC(0-t)

GET /values?readout=AUC(0-t)&item= CN(C)C(=O)/C=C/CNCCOc1ccc(/C(=C(/CC(F)(F)F)c2ccccc2)c2ccc3[nH]nc(F)c3c2)cn1 12300 ng·h/mL

====

assay.notes: Plasma PK of H3B-6545 capsules in fasted patients, phase 1 dose escalation
Format: in vivo, human
protocol.conditions: female, human, plasma, oral, 100 mg, Cycle 1 Day 15; 100 mg QD capsules, fasted patients; Geometric Mean (GeoCV %); read-out: Vz/F
quantity.name: Vd/F

GET /values?readout=Vd/F&item= CN(C)C(=O)/C=C/CNCCOc1ccc(/C(=C(/CC(F)(F)F)c2ccccc2)c2ccc3[nH]nc(F)c3c2)cn1 731 L
